MATE2K ratio for assorted molecules
Molecular target: MATE2K (Homo sapiens)
Sequence (Q86VL8 1-566 isoform Q86VL8-3): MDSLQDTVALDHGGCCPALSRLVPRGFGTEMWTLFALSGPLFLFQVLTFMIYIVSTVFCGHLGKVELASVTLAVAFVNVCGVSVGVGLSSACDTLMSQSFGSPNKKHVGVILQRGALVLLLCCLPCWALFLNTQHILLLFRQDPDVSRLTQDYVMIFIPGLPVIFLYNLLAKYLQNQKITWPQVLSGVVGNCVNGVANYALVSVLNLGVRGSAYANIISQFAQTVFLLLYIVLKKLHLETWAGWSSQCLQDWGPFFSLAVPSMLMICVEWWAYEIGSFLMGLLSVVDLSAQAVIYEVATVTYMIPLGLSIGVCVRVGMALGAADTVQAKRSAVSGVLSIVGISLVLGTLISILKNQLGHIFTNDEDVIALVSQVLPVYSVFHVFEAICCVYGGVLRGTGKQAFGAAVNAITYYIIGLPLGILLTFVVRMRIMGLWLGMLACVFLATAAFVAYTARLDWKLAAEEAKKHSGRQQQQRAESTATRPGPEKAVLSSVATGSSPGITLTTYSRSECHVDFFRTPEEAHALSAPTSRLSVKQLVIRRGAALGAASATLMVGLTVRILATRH
Assay: Uptake ratio in MATE2K-overexpressing HEK293 cells vs empty vector (2.5 μM, 1 min, HPLC-MS/MS)
Assay type: cell-based
Conditions: fold uptake over empty vector, 2.5 μM, 1 min
Keep it simple and answer with nothing but the number.

{"MOLECULE": "Nc1ccn([C@@H]2O[C@H](CO)[C@@H](O)C2(F)F)c(=O)n1", "MATE2K ratio": 1.08}
{"MOLECULE": "Cc1ncc(CO)c(CO)c1O", "MATE2K ratio": 1.18}
{"MOLECULE": "OC(CCN1CCCCC1)(c1ccccc1)c1ccccc1", "MATE2K ratio": 1.27}
{"MOLECULE": "CCCCNc1cc(C(=O)O)cc(S(N)(=O)=O)c1Oc1ccccc1 [Bumetanide]", "MATE2K ratio": 1.18}
{"MOLECULE": "CCOC(=O)c1ccc(OC(=O)CCCCCNC(=N)N)cc1 [Gabexate]", "MATE2K ratio": 4.18}
{"MOLECULE": "[H]/N=C(/N)N/C(=N/[H])NCCc1ccccc1", "MATE2K ratio": 3.01}
{"MOLECULE": "NCC(O)c1ccc(O)cc1 (stereo not shown)", "MATE2K ratio": 1.43}
{"MOLECULE": "CC(C1=C(CCN(C)C)Cc2ccccc21)c1ccccn1 (stereo not shown)", "MATE2K ratio": 1.02}

Task: Kindly state the measured MATE2K ratio obtained for OCCOCCN1CCN(C2=Nc3ccccc3Sc3ccccc32)CC1 with MATE2K (Homo sapiens).
Output: 1.28

Task: And then CNCC(O)c1ccccc1 (stereo not shown) , what is it?
Output: 1.52

Task: And then [H]/N=C(\N/C(=N/[H])NCCCCCCNC(=N)NC(=N)Nc1ccc(Cl)cc1)Nc1ccc(Cl)cc1 , what is it?
Output: 0.99

Task: And then CNCCCC12CCC(c3ccccc31)c1ccccc12 , what is it?
Output: 1.04

Task: And then CNC[C@H](O)c1ccc(O)c(O)c1 (racemic) [Epinephrine (rac), Epinephrine] , what is it?
Output: 3.27

Task: And then Cc1ncc(CO)c(C=O)c1O , what is it?
Output: 1.14

Task: And then CC(=O)OC(C)C[N+](C)(C)C (stereo not shown) , what is it?
Output: 2.57

Task: And then NCCc1ccc(O)c(O)c1 , what is it?
Output: 1.97

Task: And then CC(C)C[C@H](NC(=O)[C@H](Cc1ccccc1)NC(=O)c1cnccn1)B(O)O , what is it?
Output: 1.10

Task: And then C[C@H]1N=C(N(C)C)N=C(N)N1 , what is it?
Output: 4.59

Task: And then CC(C)(C)NCC(O)c1ccc(O)c(CO)n1 (stereo not shown) , what is it?
Output: 6.00

Task: And then Cc1oc2nc3c(c(NC(=O)CN4CCCC4=O)c2c1C)CCCC3 , what is it?
Output: 0.97

Task: And then CCS(=O)(=O)N1CC(CC#N)(n2cc(-c3ncnc4[nH]ccc34)cn2)C1 , what is it?
Output: 1.04

Task: And then CNC[C@H](O)c1cccc(O)c1 [Phenylephrine] , what is it?
Output: 1.75
